Entries annotated with measured MIC
Tested on: M. tuberculosis H37Rv
assay-method-text: MIC, microplate Alamar blue assay (MABA)
Type: cell-based
experimental-conditions: Mycobacterium tuberculosis, standard and susceptible strain
reported-endpoint: MIC (µg/mL)

INSERT INTO results (structure_smiles_string, reported_endpoint, inequality_operator, measured_value) VALUES
  ('CO[C@H]1/C=C/O[C@@]2(C)Oc3c(C)c(O)c4c(O)c(c(/C=N/N5CCN(C)CC5)c(O)c4c3C2=O)NC(=O)/C(C)=C\C=C\[C@H](C)[C@H](O)[C@@H](C)[C@@H](O)[C@@H](C)[C@H](OC(C)=O)[C@@H]1C', 'MIC', '<', 0.06),
  ('CC[C@@H](CO)NCCN[C@@H](CC)CO', 'MIC', '=', 0.5),
  ('[H]/N=C(/N)N[C@H]1[C@H](O)[C@@H](O)[C@H](O[C@@H]2O[C@@H](C)[C@](O)(C=O)[C@H]2O[C@@H]2O[C@@H](CO)[C@H](O)[C@@H](O)[C@@H]2NC)[C@@H](N/C(N)=N\[H])[C@@H]1O', 'MIC', '=', 0.25),
  ('NNC(=O)c1ccncc1', 'MIC', '=', 0.125);
